# Tested on: SF-295 CNS
# protocol: NCI-60 one-dose screen, 48 h
# protocol.conditions: 10 µM unless noted
The panel holds about 83,000 compounds, 20% with a hit somewhere; the sample as a whole holds those more often. The source made the active and inactive calls. Rule for the calls: active = growth percent below 10; inactive = the rest.
Labels: active, inactive

- CCOC(=O)CO: inactive
- C=CCS(C)(=O)=O: inactive
- CCCCCC/C=C\CCCCCCCCCc1cc(O)cc(OC)c1O: active
- Oc1cc2ccccc2c(-c2c(O)c(O)cc3ccccc23)c1O: active
- NNC(=O)CCCCl: inactive
- COC1OC(C(O)C(O)CO)C(O)C(O)C1O (configuration not stated): inactive
- O=C(c1cccc(C(=O)c2ccc3c4c(cccc24)C(=O)N(c2ccccc2)C3=O)c1)c1ccc2c3c(cccc13)C(=O)N(c1ccccc1)C2=O: inactive
- C(=C\c1ccncc1)/c1ccncc1: inactive
- CCCCn1cnc2c(=O)[nH]cnc21: inactive
- O=[N+]([O-])c1c(O)c(CNCCCO)cc(CNCCCO)c1O: inactive
- CCCCN(C(=O)CC)c1ccccc1: inactive
- O=C1CSc2ccccc2N1: inactive
- CC(C)C(=O)OCCOc1ccc(C(C)(C)C)cc1: inactive
- O=S1(=O)c2ccccc2Oc2ccccc21: inactive
- O=Cc1ccc(O)c(O)c1: inactive
- C=C(c1ccc(N(C)C)cc1)c1ccc(N(C)C)cc1: inactive
- O=S(Cc1ccccc1)/C(=C/NC(=S)Nc1cc(Cl)ccc1Cl)c1ccccc1 (configuration not stated): inactive
- NC(=O)N1CCOCC1: inactive
- C=C1C(=O)C2CCN1CC2: inactive
- Nc1ccc2c(c1)Cc1cc(N)c(N)cc1-2: inactive
- O=C(O)CCCCCNC(=O)OCc1ccccc1: inactive
- CC(=O)N(C(C)=O)c1ccc(C)cc1: inactive
- COc1nc(Nc2cccc(C(F)(F)F)c2)nc(OC)n1: inactive
- NCC(O)C(O)C(O)C(O)CO (configuration not stated): inactive
- O=C(O)C1CCCN1C(=O)OCc1ccccc1 (configuration not stated): inactive
- CN(C)c1ncnc2c1cnn2C: inactive
- Oc1cccnc1CN1CCCC1: inactive
- CCNC(=O)Oc1ccc[nH]c1=O: inactive
- Nc1ncnc(Nc2ccc(C(F)(F)F)cc2)n1: inactive
- CN(C)Cc1ccccn1: inactive
- Cc1ccccc1NC(=O)Oc1ccc(Cl)cc1C(=O)c1ccccc1: inactive
- CC(CCC#N)(CCC#N)C(=O)c1ccccc1: inactive
- CCOC(=O)CSCCC#N: inactive
- Cc1c(Cl)cccc1N=C=S: inactive
- Cc1ccc2nc(-c3ccc(N=Cc4ccccc4O)cc3)sc2c1: inactive
- Cc1ccc(NC(=S)N2CCOCC2)cc1C: inactive
- C=CCC(OC(C)=O)c1ccc(C(C)C)cc1 (configuration not stated): inactive
- NC(=O)NCCO: inactive
- C=C1CC2(OC1=O)C(=O)N(C)c1ccc(I)cc12 (configuration not stated): inactive
- O=C(NCc1ccccc1)c1cccc([N+](=O)[O-])c1: inactive
- OC1Cc2ccccc2C1: inactive
- Cc1cc(CC(=O)NCCO)n(CCO)c(=O)c1: inactive
- CC(=O)Nc1ncc(S(=O)(=O)c2ccc([N+](=O)[O-])cc2)s1: inactive
- Cc1ccc2nc(N)nnc2c1: inactive
- CCOC(=O)c1c[nH][nH]c1=O: inactive
- N#CCCN1C(=O)CCC1C(=O)O (configuration not stated): inactive
- CSc1nc2[nH]ncc2c(=O)[nH]1: inactive
- CCCCCC#CC(=O)O: inactive
- Clc1ccc(C(SCc2ccccc2)SCc2ccccc2)cc1: inactive
- Oc1cccc(CNC2CCCCC2)c1: inactive
- N#Cc1ccc(OC(=O)Nc2cc(Cl)cc(Cl)c2)cc1: active
- CCCCCCCCCCC(=O)CCCCCCCCCC: inactive
- CC1CCC(C(C)(C)[N+](C)(C)C)CC1 (configuration not stated): inactive
- FC(F)(F)c1cc(NC2=NCCN=C(Nc3cc(C(F)(F)F)cc(C(F)(F)F)c3)SS2)cc(C(F)(F)F)c1: inactive
- COC1=C(OC)C(=O)C(SC/C=C(\C)CCCC(C)CCCC(C)CCCC(C)C)=CC1=O (configuration not stated): inactive
- O=C(NC(=S)N1CC=CCC1)c1ccccc1: inactive
- C/C(Cc1ccccc1)=N\O: inactive
